Target: D4 dopamine receptor (Homo sapiens, UniProt P21917)
Sequence (P21917 1-419): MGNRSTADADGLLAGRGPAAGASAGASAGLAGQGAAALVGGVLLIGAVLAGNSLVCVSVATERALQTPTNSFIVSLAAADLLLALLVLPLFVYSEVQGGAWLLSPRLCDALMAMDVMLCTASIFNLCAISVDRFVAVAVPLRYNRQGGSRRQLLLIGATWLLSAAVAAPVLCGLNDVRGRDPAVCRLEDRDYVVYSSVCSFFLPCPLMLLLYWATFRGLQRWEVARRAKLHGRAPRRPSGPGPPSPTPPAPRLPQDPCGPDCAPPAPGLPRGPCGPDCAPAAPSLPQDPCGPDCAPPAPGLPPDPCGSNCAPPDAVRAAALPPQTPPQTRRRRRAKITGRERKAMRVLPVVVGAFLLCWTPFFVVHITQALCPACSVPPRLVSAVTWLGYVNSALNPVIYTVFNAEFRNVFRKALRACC
property_measured: pKi
Scale: pKi equals -log10([C]), with [C] in mol/L.

Task: Return pKi measured with D4 dopamine receptor (Homo sapiens, UniProt P21917) given this compound: OC1(c2ccc(Cl)c(C(F)(F)F)c2)CCN(CCCCC(c2ccc(F)cc2)c2ccc(F)cc2)CC1
Output: 7.60
